# SYSTEM TESTED: MAST2, Q6P0Q8
# Sequence (Q6P0Q8 1099-1202): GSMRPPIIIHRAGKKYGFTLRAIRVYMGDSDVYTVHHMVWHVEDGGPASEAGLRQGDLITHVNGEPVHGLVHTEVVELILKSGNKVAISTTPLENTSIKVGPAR
# EXPERIMENT: holdup assay
# Design: key: below the threshold = too weak to quantify, mostly under pKd 3.1 to 4
# RUN PARAMETERS: plain residues with an end cap or a label only (N-terminal biotin on a linker: ado-ado)
I'd be grateful if you could share measured pKd for these entries.
Output spec: single numeric token, no unit.

Query: Entry AKPSRISTVV [IQSEC2, Q5JU85] : reported pKd = ?
Reply: 5.11

Query: # get_value(readout='pKd', item= VDSTVKVWTC [TRAF7, Q6Q0C0] )
Reply: 3.74

Query: Which measured pKd value corresponds to GNSVLKSTQF [SLC22A12, Q96S37] ?
Reply: 4.77

Query: pKd; subject: YRLAQESGLV [ABCC6, O95255]
Reply: 4.1

Query: I have this binder here, CLREWCDAFL [BANF1, O75531] , and I need its recorded pKd.
Reply: 5.52

Query: Which measured pKd value corresponds to QHKTQLQTLI [BPIFA2, Q96DR5] ?
Reply: 4.92

Query: pKd lookup needed for DDPSTAETVL [ABCA7, Q8IZY2] , thanks.
Reply: 5.64

Query: pKd; subject: PAPSSGKDYV [CLDN1, O95832]
Reply: 3.84
